Where do the numbers come from? From patent US8802704B2.

List of Ki values.
- TEST TARGET: UniProt Q99500
- Sequence (Q99500 whole entry, species assumed): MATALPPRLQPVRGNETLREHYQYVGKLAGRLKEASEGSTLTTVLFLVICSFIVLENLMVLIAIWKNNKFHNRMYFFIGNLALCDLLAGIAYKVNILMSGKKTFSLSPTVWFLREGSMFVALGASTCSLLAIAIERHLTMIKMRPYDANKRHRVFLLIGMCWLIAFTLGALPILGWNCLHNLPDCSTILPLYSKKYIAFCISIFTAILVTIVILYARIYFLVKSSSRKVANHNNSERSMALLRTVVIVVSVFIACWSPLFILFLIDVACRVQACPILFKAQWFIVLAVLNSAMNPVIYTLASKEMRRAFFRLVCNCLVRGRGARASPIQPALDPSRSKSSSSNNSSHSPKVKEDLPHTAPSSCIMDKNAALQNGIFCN
- ASSAY INFO: Receptor binding assay, [33P]sphingosine 1-phosphate competition (SPA), S1P3
- CONDITION DETAILS: 96 well-plate; read-out: S1P3 binding Ki (M) (96 well-plate)
MEASURED PARAMETER: Ki

[[record]]
chemical_smiles = "Cc1ccccc1-c1ccc(-c2nc(-c3ccc(CN(C)CCC(=O)O)c(F)c3)no2)cc1C(F)(F)F"
measured = "1.31e-07 M"

[[record]]
chemical_smiles = "CN(CC(=O)O)Cc1cc(F)cc(-c2noc(-c3ccc(-c4ccccc4)c(C(F)(F)F)c3)n2)c1"
measured = "3.69e-08 M"

[[record]]
chemical_smiles = "Cc1ccccc1-c1ccc(-c2nc(-c3cc(F)cc(CN(C)CC(=O)O)c3)no2)cc1C(F)(F)F"
measured = "3.68e-08 M"

[[record]]
chemical_smiles = "Cc1ccccc1-c1ccc(-c2nc(-c3ccc(CN(C)CCC(=O)O)cc3)no2)cc1C(F)(F)F"
measured = "1.88e-07 M"

[[record]]
chemical_smiles = "Cc1ccccc1-c1ccc(-c2nc(-c3ccc(CN(CC(=O)O)C(C)C)cc3)no2)cc1C(F)(F)F"
measured = "2.17e-06 M"

[[record]]
chemical_smiles = "CN(CC(=O)O)Cc1cccc(-c2noc(-c3ccc(-c4ccccc4)c(C(F)(F)F)c3)n2)c1"
measured = "1.09e-07 M"

[[record]]
chemical_smiles = "CCOc1cc(-c2nc(-c3ccc(CN(C)CC(=O)O)cc3)no2)ccc1-c1ccccc1C(F)(F)F"
measured = "6.68e-07 M"


* * *

- ASSAY INFO: Pharmacokinetics (PK parameters from lymphopenia, mouse)
- Type: in vivo
- CONDITION DETAILS: female, C57BL/6, plasma, po, 30 mg/kg, PK-PD (30 mpk)
MEASURED PARAMETER: Tmax (h)

[[record]]
compound = "Cc1ccccc1-c1ccc(-c2nc(-c3ccc(CN(C)CC(=O)O)c(F)c3)no2)cc1C(F)(F)F [Example 70]"
measured_parameter = "Tmax"
readout_units = "h"
measured = 2


* * *

Overview of reported Ki across a group of molecules:
- TEST TARGET: S1P1 (Homo sapiens, UniProt P21453)
- ASSAY INFO: Receptor binding assay, [33P]sphingosine 1-phosphate competition (SPA), S1P1
- CONDITION DETAILS: 384 well-plate; read-out: S1P1 binding Ki (M) (384 well-plate)
- Sequence (P21453 whole entry, species assumed): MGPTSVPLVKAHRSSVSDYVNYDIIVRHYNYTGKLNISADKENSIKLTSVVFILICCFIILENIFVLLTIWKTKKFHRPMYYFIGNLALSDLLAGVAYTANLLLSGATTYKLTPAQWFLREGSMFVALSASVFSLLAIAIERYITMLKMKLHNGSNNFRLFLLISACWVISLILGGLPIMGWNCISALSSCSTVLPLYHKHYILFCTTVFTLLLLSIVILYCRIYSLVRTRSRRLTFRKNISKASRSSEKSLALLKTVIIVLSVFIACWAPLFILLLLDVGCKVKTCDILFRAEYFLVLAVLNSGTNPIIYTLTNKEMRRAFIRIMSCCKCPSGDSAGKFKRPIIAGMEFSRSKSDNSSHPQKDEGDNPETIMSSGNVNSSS
MEASURED PARAMETER: Ki

[[record]]
chemical_smiles = "CCc1cc(-c2noc(-c3ccc(-c4ccccc4C)c(C(F)(F)F)c3)n2)ccc1CN(C)CC(=O)O"
measured_parameter = "Ki"
measured = "3.72e-09 M"

[[record]]
chemical_smiles = "Cc1ccccc1-c1ccc(-c2nc(-c3cccc(CN(CC(=O)O)C(C)C)c3)no2)cc1C(F)(F)F"
measured_parameter = "Ki"
measured = "3.24e-09 M"

[[record]]
chemical_smiles = "Cc1ccccc1-c1ccc(-c2nc(-c3ccc(CN(CC(=O)O)C(C)C)cc3)no2)cc1C(F)(F)F"
measured_parameter = "Ki"
measured = "2.9e-09 M"

[[record]]
chemical_smiles = "Cc1ccccc1-c1ccc(-c2nc(-c3ccc(CN(C)CC(=O)O)c(F)c3F)no2)cc1C(F)(F)F"
measured_parameter = "Ki"
measured = "2.07e-09 M"

[[record]]
chemical_smiles = "CN(CC(=O)O)Cc1ccc(-c2noc(-c3ccc(-c4ccccc4C(F)(F)F)c(Cl)c3)n2)cc1F"
measured_parameter = "Ki"
measured = "4.07e-09 M"

[[record]]
chemical_smiles = "CCc1ccccc1-c1ccc(-c2nc(-c3ccc(CN(C)CC(=O)O)c(F)c3)no2)cc1C(F)(F)F"
measured_parameter = "Ki"
measured = "6.22e-09 M"

[[record]]
chemical_smiles = "CN(CC(=O)O)Cc1ccc(-c2noc(-c3ccc(-c4ccccc4F)c(C(F)(F)F)c3)n2)cc1"
measured_parameter = "Ki"
measured = "1.19e-09 M"


* * *

Recorded pEC50, one value per entry.
- TEST TARGET: S1P1 (Homo sapiens, UniProt P21453)
- ASSAY INFO: S1P1 internalization assay in S1P1-U2OS cells (cell imaging)
- Format: cell-based
- CONDITION DETAILS: U2OS cells expressing S1P1-EGFP, 1 hour
- Sequence (P21453 whole entry): as the sequence (P21453 whole entry, species assumed) above
pEC50: −log10 of the molar value.
MEASURED PARAMETER: pEC50

[[record]]
chemical_smiles = "Cc1cc(-c2nc(-c3ccc(CN(C)CC(=O)O)c(F)c3)no2)ccc1-c1ccccc1C(F)(F)F"
measured_parameter = "pEC50"
measured = 7.52

[[record]]
chemical_smiles = "CN(CC(=O)O)Cc1ccc(-c2noc(-c3ccc(-c4ccccc4C(F)(F)F)c(Cl)c3)n2)cc1"
measured_parameter = "pEC50"
measured = 7.58

[[record]]
chemical_smiles = "Cc1cc(-c2nc(-c3cc(F)cc(CN(C)CC(=O)O)c3)no2)ccc1-c1ccccc1C(F)(F)F"
measured_parameter = "pEC50"
measured = 7.82

[[record]]
chemical_smiles = "CCc1ccccc1-c1ccc(-c2nc(-c3ccc(CN(C)CC(=O)O)cc3)no2)cc1C(F)(F)F"
measured_parameter = "pEC50"
measured = 7.92

[[record]]
chemical_smiles = "COCc1cc(-c2nc(-c3ccc(CN(C)CC(=O)O)c(C(F)(F)F)c3)no2)ccc1-c1ccccc1C"
measured_parameter = "pEC50"
measured = 7.13

[[record]]
chemical_smiles = "Cc1ccccc1-c1ccc(-c2nc(-c3cccc(CN(CC(=O)O)C(C)C)c3)no2)cc1C(F)(F)F"
measured_parameter = "pEC50"
measured = 7.30

[[record]]
chemical_smiles = "COCc1cc(-c2nc(-c3cccc(CN(C)CC(=O)O)c3F)no2)ccc1-c1ccccc1C(F)(F)F"
measured_parameter = "pEC50"
measured = 7.81

[[record]]
chemical_smiles = "Cc1ccccc1-c1ccc(-c2nc(-c3ccc(CN(C)CC(=O)O)cc3)no2)cc1C(F)(F)F"
measured_parameter = "pEC50"
measured = 7.94

[[record]]
chemical_smiles = "Cc1ccccc1-c1ccc(-c2nc(-c3cccc(CN(C)CC(=O)O)c3F)no2)cc1C(F)(F)F"
measured_parameter = "pEC50"
measured = 8.20

[[record]]
chemical_smiles = "Cc1ccccc1-c1ccc(-c2nc(-c3cc(F)cc(CN(C)CC(=O)O)c3)no2)cc1C(F)(F)F"
measured_parameter = "pEC50"
measured = 8.09


* * *

- TEST TARGET: S1P1 (Homo sapiens)
- ASSAY INFO: 35S-GTPγS binding on membranes from CHO cells expressing S1P1
- Format: biochemical
- CONDITION DETAILS: read-out: S1P1/GTPG EC50
pEC50: −log10 of the molar value.
MEASURED PARAMETER: pEC50

[[record]]
chemical_smiles = "Cc1ccccc1-c1ccc(-c2nc(-c3cccc(CN(C)CC(=O)O)c3)no2)cc1C(F)(F)F"
measured = 8.91


* * *

- ASSAY INFO: Pharmacokinetics (PK parameters from lymphopenia, mouse)
- Format: in vivo
- CONDITION DETAILS: female, C57BL/6, plasma, po, 30 mg/kg, PK-PD (30 mpk)
MEASURED PARAMETER: AUC(0-inf) (µg·h/mL)

[[record]]
compound = "Cc1ccccc1-c1ccc(-c2nc(-c3ccc(CN(C)CC(=O)O)c(F)c3)no2)cc1C(F)(F)F [Example 70]"
measured_parameter = "AUC(0-inf)"
readout_units = "µg·h/mL"
measured = 104


* * *

- ASSAY INFO: Pharmacokinetics (PK parameters from lymphopenia, mouse)
- Type: in vivo
- CONDITION DETAILS: female, C57BL/6, plasma, po, 30 mg/kg, PK-PD (30 mpk)
MEASURED PARAMETER: Cmax (ng/mL)

[[record]]
compound = "Cc1ccccc1-c1ccc(-c2nc(-c3ccc(CN(C)CC(=O)O)c(F)c3)no2)cc1C(F)(F)F [Example 70]"
measured_parameter = "Cmax"
readout_units = "ng/mL"
measured = 8780


* * *

- ASSAY INFO: Pharmacokinetics (PK parameters from lymphopenia, mouse)
- Type: in vivo
- CONDITION DETAILS: female, C57BL/6, plasma, po, 30 mg/kg, PK-PD (30 mpk)
MEASURED PARAMETER: CL/F (mL/min/kg)

[[record]]
compound = "Cc1ccccc1-c1ccc(-c2nc(-c3ccc(CN(C)CC(=O)O)c(F)c3)no2)cc1C(F)(F)F [Example 70]"
readout_units = "mL/min/kg"
measured = 5


* * *

- TEST TARGET: UniProt:P21453
- ASSAY INFO: Receptor binding assay, [33P]sphingosine 1-phosphate competition (SPA), S1P1
- CONDITION DETAILS: 96 well-plate; read-out: S1P1 binding Ki (M) (96 well-plate)
MEASURED PARAMETER: Ki (M)

[[record]]
compound = "CN(CC(=O)O)Cc1ccc(-c2noc(-c3ccc(-c4ccccc4F)c(C(F)(F)F)c3)n2)cc1 [Example 89]"
measured = "3.49e-10"

[[record]]
compound = "Cc1ccccc1-c1ccc(-c2nc(-c3ccc(CN(C)CC(=O)O)cc3)no2)cc1C(F)(F)F [Example 81]"
measured = "4.12e-10"

[[record]]
compound = "Cc1ccccc1-c1ccc(-c2nc(-c3cc(F)cc(CN(C)CC(=O)O)c3)no2)cc1C(F)(F)F [Example 64]"
measured = "2.96e-10"

[[record]]
compound = "COCc1cc(-c2nc(-c3ccc(CN(C)CC(=O)O)c(F)c3)no2)ccc1-c1ccccc1C(F)(F)F [Example 95]"
measured = "4.26e-10"

[[record]]
compound = "COCc1cc(-c2nc(-c3cccc(CN(C)CC(=O)O)c3)no2)ccc1-c1ccccc1C(F)(F)F [Example 49]"
measured = "8.7e-10"

[[record]]
compound = "CN(CC(=O)O)Cc1cccc(-c2noc(-c3ccc(-c4ccccc4)c(C(F)(F)F)c3)n2)c1 [Example 68]"
measured = "3.57e-10"

